The reported numbers originate from the RNAGym collection of RNA variant scans (doi:10.1093/molbev/msab373).

Quick list: reverse-splicing fitness per entry.
B1: Azoarcus group I ribozyme (parent)
chain: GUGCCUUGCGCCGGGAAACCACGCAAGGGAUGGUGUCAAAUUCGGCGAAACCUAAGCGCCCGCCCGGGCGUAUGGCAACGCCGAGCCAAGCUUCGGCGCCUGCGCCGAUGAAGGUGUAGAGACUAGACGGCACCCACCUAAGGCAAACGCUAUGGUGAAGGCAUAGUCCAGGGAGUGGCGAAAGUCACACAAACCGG

variants of: B1; assay: reverse-splicing fitness (ratio to wild type); higher = more active; in vitro selection; Mg2+ level not given
observed-property: reverse-splicing fitness

> print(dat)
                            sequence.variant         observed.property  reported.value
 1        C82A A111C A120U A145U C169U U176A  reverse-splicing fitness         0.00262
 2        C82A A111G A120U A145C C150U U176A  reverse-splicing fitness         0.00447
 3  C82G A111G A120U A145U C150G C169A U176G  reverse-splicing fitness         0.00219
 4                   A145C C150U C169U U176A  reverse-splicing fitness          0.0513
 5             A111C A120U C150U C169A U176C  reverse-splicing fitness         0.00309
 6                   A145C C150U C169U U176G  reverse-splicing fitness         0.00838
 7                   A120U A145U C169U U176A  reverse-splicing fitness          0.0858
 8              C82A A120C A145G C169G U176G  reverse-splicing fitness          0.0041
 9             A111G A120U A145G C150A C169G  reverse-splicing fitness          0.0141
10              C82U A120G A145C C150A C169A  reverse-splicing fitness         0.00745
11  C82U A111C A120U A145C C150G C169A U176G  reverse-splicing fitness          0.0024
12             A111C A145U C150A C169A U176G  reverse-splicing fitness         0.00755
13        C82A A111G A120G C150A C169G U176G  reverse-splicing fitness         0.00613
14        C82U A120U A145G C150G C169A U176G  reverse-splicing fitness         0.00459
15              C82G A111U A120G C150G C169G  reverse-splicing fitness         0.00797
16              C82G A111C C150A C169G U176A  reverse-splicing fitness          0.0173
17        C82G A120U A145C C150A C169G U176G  reverse-splicing fitness         0.00136
18        C82A A111U A120G C150G C169G U176G  reverse-splicing fitness         0.00446
19        C82U A111U A120U A145G C150G C169G  reverse-splicing fitness         0.00647
20              C82U A111G A145G C150A U176G  reverse-splicing fitness          0.0108
21  C82U A111C A120U A145U C150U C169A U176G  reverse-splicing fitness         0.00229
22  C82G A111G A120C A145G C150G C169U U176C  reverse-splicing fitness          0.0142
23             A111U A120U C150A C169A U176C  reverse-splicing fitness         0.00348
24              C82G A111U A120G A145C U176C  reverse-splicing fitness          0.0136
25        C82G A111C A120U A145C C169G U176A  reverse-splicing fitness         0.00322
26  C82A A111G A120C A145G C150U C169U U176C  reverse-splicing fitness          0.0148
27        C82A A111C A120G A145C C150G C169U  reverse-splicing fitness         0.00668
28        C82U A111U A120U A145C C150G U176G  reverse-splicing fitness         0.00213
29              C82A A111G A120G A145U U176G  reverse-splicing fitness         0.00583
30             A111G A120G A145U C150A U176C  reverse-splicing fitness          0.0234
31              C82G A111U C150G C169A U176C  reverse-splicing fitness          0.0132
32        C82G A111U A120C C150A C169A U176G  reverse-splicing fitness         0.00867
33  C82G A111G A120C A145U C150U C169U U176G  reverse-splicing fitness         0.00591
34                   A120U C150U C169U U176A  reverse-splicing fitness          0.0605
35       A111G A120U A145U C150G C169U U176G  reverse-splicing fitness         0.00216
36  C82A A111C A120U A145U C150U C169U U176A  reverse-splicing fitness         0.00402
37              C82A A111U A120G C169U U176G  reverse-splicing fitness         0.00615
38                         A120U C150U U176A  reverse-splicing fitness            0.62
39        C82G A120G A145G C150U C169U U176G  reverse-splicing fitness         0.00473
40              C82A A111U A120C A145U C169G  reverse-splicing fitness          0.0114
41        C82U A111U A120G A145U C150U U176A  reverse-splicing fitness         0.00953
42        C82G A111C A120G C150G C169G U176A  reverse-splicing fitness         0.00677
43                    C82U C150A C169A U176G  reverse-splicing fitness         0.00489
44                   A111G A120U C150G C169A  reverse-splicing fitness         0.00729
45                         A145U C169A U176G  reverse-splicing fitness         0.00543
46              C82U A145C C150A C169U U176A  reverse-splicing fitness          0.0103
